Taken from patent US12617777B2.

Each entry below carries its recorded pIC50.
- assay system: human GPR84 receptor (Homo sapiens)
- Sequence (Q9NQS5 whole entry): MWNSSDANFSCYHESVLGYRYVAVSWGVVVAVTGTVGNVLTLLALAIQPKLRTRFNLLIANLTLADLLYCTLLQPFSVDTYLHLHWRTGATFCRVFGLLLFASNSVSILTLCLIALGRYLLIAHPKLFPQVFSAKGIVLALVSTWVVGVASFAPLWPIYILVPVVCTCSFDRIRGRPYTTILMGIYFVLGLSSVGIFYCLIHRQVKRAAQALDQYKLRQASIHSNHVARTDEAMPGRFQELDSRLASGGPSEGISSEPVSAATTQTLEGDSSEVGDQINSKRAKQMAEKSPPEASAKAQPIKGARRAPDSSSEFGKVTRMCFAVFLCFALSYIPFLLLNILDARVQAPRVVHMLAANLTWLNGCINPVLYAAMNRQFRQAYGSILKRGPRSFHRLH
- assay name: Gαi biosensor BRET assay in HEK293 cells (antagonism of ZQ-16)
- setup conditions: HEK293 cells, antagonism of 200 nmol/L ZQ-16
pIC50: −log10 of the molar value.

For Cc1ccc(-c2ccc(-c3cn(CC4CCCCO4)nn3)cc2)cn1 (centres unmarked) , what is its reported pIC50?
< 5.52

For CCN(CC)c1cc(N2CC(C)(CO)C2)ccc1-c1cn(CC2OCC3(CC3)CO2)nn1 , what is its reported pIC50?
6.00 to 6.52

For CCOCC#Cc1cnc(-c2cn(CC3OCC(C)(C)CO3)nn2)c(OC2CC2)c1 , what is its reported pIC50?
≥ 6.52
